System: SK-MEL-28 melanoma
Assay: NCI tumour cell line growth inhibition, 48 h
Readout Kind: GI50

Solved cases below.
CCOC(=O)[C@@H]1CSC(CC)=C(C(=O)O)N1 = > 100000 nM
CCOC(=O)/C(=C\c1ccc2ccccc2c1)P(=O)(OCC)OCC = 2950 nM
COc1ccc2c(c1OC)O/C(=C\c1ncc([N+](=O)[O-])n1C)C2=O = 623 nM
OCC(O)C(O)C(O)C(O)c1nnc2c(-c3ccccc3)nc3ccccc3n12 (stereo unspecified) = > 100000 nM
COc1ccc2c(c1)C(=O)c1c-2c(OCCN(C)C)nc2cc(OC)c(OC)cc12 = 18900 nM

# context switch: different compound, same GI50
Please fill in: GI50 reported for `COc1ccc(-c2csc(Nc3cccc(-c4csc(C)n4)c3)n2)cc1` = 1980 nM

----------
Reported TGI by item:
System: TK-10 renal
Test: NCI tumour cell line growth inhibition, 48 h

// solved cases for TGI follow
NC(=O)/C(=C/n1cnc(-c2cc(C(F)(F)F)cc(C(F)(F)F)c2)n1)c1cncnc1 = 13.5 µM
COc1ccc2nc3cc(Cl)ccc3c(NCCCN3CCN(CCCNc4ccc5nnn6c7ccccc7c(=O)c4c56)CC3)c2c1 = > 25 µM
COc1ccc(-c2c(N)noc2-c2cc(OC)c3c(c2)OCCO3)cc1 = > 56.6 µM
O=c1[nH][nH]c(=O)c2c1ccc1oc3ccccc3c12 = > 100 µM

// TGI lookup, compound = C[As](C)SC1OCC(O)C(O)C1O (stereo not given) , result: 0.19 µM

For reference, reported TGI for `COc1ccccc1-c1c(C#N)c(N)[nH]c(=S)c1C#N` stands at > 100 µM

In plain terms, `CNC(=O)OCc1nc(SC)n(C)c1COC(=O)NC` has a documented TGI of 702 µM

Entry `O=[N+]1[C@H](c2ccccc2)[C@H](c2ccccc2)N1[O-]` ; TGI = 30.9 µM

Measured TGI of `N#C/C(=C(/O)CCl)c1nc2ccccc2o1` : > 100 µM

Per the record, `O=C(NCCNCCNC(=O)c1cc(-c2ccccc2)nc2ccccc12)c1cc(-c2ccccc2)nc2ccccc12` has TGI of 7.96 µM

Per the record, `CC(C)[C@H]1NC(=O)[C@H]2N=C(S[C@H]2C)[C@@H]2CCCN2C(=O)[C@H](Cc2ccccc2)NC(=O)[C@@H]2CSC(=N2)[C@@H](Cc2ccccc2)NC(=O)[C@@H]2CSC1=N2` has TGI of > 50 µM

Measured TGI of `CC1(C)OC[C@@H]([C@@]2(COC(c3ccccc3)(c3ccccc3)c3ccccc3)CC=CC(=O)O2)O1` : > 100 µM

Just so you know, measured TGI for `Cn1nnc2c3c(N(CCO)CCO)ccnc3ccc21` came out at > 100 µM

`COc1ccccc1NC(=O)C1=C(C)NC(C)=C(C(=O)Nc2ccccc2OC)C1c1ccco1` has a reported TGI of > 79.7 µM

For record `CCSC1=N/C(=C\c2ccco2)C(=O)N1` the listed TGI is > 100 µM

For reference, reported TGI for `Cc1sc2nc3n(c(=O)c2c1C)N=CN(c1ccc(Cl)cc1)C3` stands at > 100 µM

The value of TGI measured for the compound CC(Oc1ccccc1Cl)C(=O)NN1C(=O)CC(=O)N(c2ccc(Cl)cc2)C1=S (stereo not given) turned out to be > 100 µM

For this compound ( `O=c1oc2c3ccc4ccccc4c3n(CCN3CCCCC3)c2c2ccccc12` ), measured TGI is > 100 µM

Kindly note the recorded TGI for C[C@@H]1CC[C@H]2[C@H](C)C(OC3O[C@@H]4O[C@@]5(C)CC[C@H]6[C@H](C)CC[C@@H]([C@@H]3C)[C@@]46O5)O[C@@H]3O[C@@]4(C)CC[C@@H]1[C@]32O4 (stereo not given in full) , which is > 100 µM

Lab book: TGI of `O=C(Nc1ccccc1)OCCN=C1c2ccccc2CCc2ccccc21` noted as > 100 µM
